- Tested on: Klebsiella pneumoniae KY4275 ATCC10031
- protocol-text: MIC, agar dilution method, pH 8.0
- Type: cell-based
- measurement-setup: ATCC10031; pH 8.0; Klebsiella pneumoniae KY4275; read-out: Minimum inhibition concentration (MIC), KP

[
  {
    "compound": "CO[C@H]1[C@@H](O)[C@H](N)[C@@H](O[C@H]2O[C@H]([C@H](C)N)CC[C@H]2N)[C@H](O)[C@@H]1N(C)C(=O)CCCCCN",
    "target-entity": "Klebsiella pneumoniae KY4275 ATCC10031",
    "qualifier-sign": ">",
    "MIC [µg/mL]": 20
  },
  {
    "compound": "CCC(=O)N(C)[C@H]1[C@@H](O)[C@H](O[C@H]2O[C@H]([C@H](C)N)CC[C@H]2N)[C@@H](N)[C@H](O)[C@@H]1OC",
    "target-entity": "Klebsiella pneumoniae KY4275 ATCC10031",
    "qualifier-sign": ">",
    "MIC [µg/mL]": 200
  },
  {
    "compound": "CO[C@H]1[C@@H](O)[C@H](N)[C@@H](O[C@H]2O[C@H]([C@H](C)N)CC[C@H]2N)[C@H](O)[C@@H]1N(C)C(=O)CCCN",
    "target-entity": "Klebsiella pneumoniae KY4275 ATCC10031",
    "qualifier-sign": "=",
    "MIC [µg/mL]": 2.5
  },
  {
    "compound": "CO[C@H]1[C@@H](O)[C@H](N)[C@@H](O[C@H]2O[C@H]([C@H](C)N)CC[C@H]2N)[C@H](O)[C@@H]1N(C)CCO [Compound 24, 4-N-(2-hydroxyethyl)fortimicin B]",
    "target-entity": "Klebsiella pneumoniae KY4275 ATCC10031",
    "qualifier-sign": "=",
    "MIC [µg/mL]": 40
  },
  {
    "compound": "CNCC[C@H](O)CN(C)[C@H]1[C@@H](O)[C@H](O[C@H]2O[C@H]([C@H](C)N)CC[C@H]2N)[C@@H](N)[C@H](O)[C@@H]1OC",
    "target-entity": "Klebsiella pneumoniae KY4275 ATCC10031",
    "qualifier-sign": "=",
    "MIC [µg/mL]": 0.32
  }
]

* * *

- Tested on: Bacillus subtilis KY4273
- protocol-text: MIC, agar dilution method, pH 8.0
- Assay type: cell-based
- measurement-setup: pH 8.0; Bacillus subtilis KY4273; read-out: Minimum inhibition concentration (MIC), BS

[
  {
    "compound": "CO[C@H]1[C@@H](O)[C@H](N)[C@@H](O[C@H]2O[C@H]([C@H](C)N)CC[C@H]2N)[C@H](O)[C@@H]1N(C)CCCCCCN",
    "target-entity": "Bacillus subtilis KY4273",
    "MIC": "5 µg/mL"
  },
  {
    "compound": "CO[C@H]1[C@@H](O)[C@H](N)[C@@H](O[C@H]2O[C@H]([C@H](C)N)CC[C@H]2N)[C@H](O)[C@@H]1N(C)C(=O)CCCCCN",
    "target-entity": "Bacillus subtilis KY4273",
    "MIC": "> 20 µg/mL"
  },
  {
    "compound": "CO[C@H]1[C@@H](O)[C@H](N)[C@@H](O[C@H]2O[C@H]([C@H](C)N)CC[C@H]2N)[C@H](O)[C@@H]1N(C)CCO [Compound 24, 4-N-(2-hydroxyethyl)fortimicin B]",
    "target-entity": "Bacillus subtilis KY4273",
    "MIC": "> 80 µg/mL"
  }
]

* * *

- Tested on: Shigella sonnei KY4281 ATCC9290
- protocol-text: MIC, agar dilution method, pH 8.0
- Assay type: cell-based
- measurement-setup: ATCC9290; pH 8.0; Shigella sonnei KY4281; read-out: Minimum inhibition concentration (MIC), SS
Reported MIC values follow for various molecules

[
  {
    "molecule": "CO[C@H]1[C@@H](O)[C@H](N)[C@@H](O[C@H]2O[C@H]([C@H](C)N)CC[C@H]2N)[C@H](O)[C@@H]1N(C)C(=O)CCCN",
    "MIC [µg/mL]": 2.5
  },
  {
    "molecule": "CO[C@H]1[C@@H](O)[C@H](N)[C@@H](O[C@H]2O[C@H]([C@H](C)N)CC[C@H]2N)[C@H](O)[C@@H]1N(C)CC(O)CCN (stereo partly drawn)",
    "MIC [µg/mL]": 0.63
  },
  {
    "molecule": "CO[C@H]1[C@@H](O)[C@H](N)[C@@H](O[C@H]2O[C@H]([C@H](C)N)CC[C@H]2N)[C@H](O)[C@@H]1N(C)C(=O)CNC(=O)CN",
    "MIC [µg/mL]": 5
  }
]

* * *

This listing pairs compounds with measured MIC.
- System: Pseudomonas aeruginosa R5 KY8512
- protocol-text: MIC, agar dilution method, pH 7.2
- Type: cell-based
- measurement-setup: R5KY8512, pH 7.2, P. aeruginosa R5 KY8512, 6**: neomycin, producing phosphotransferase type I and type II, read-out: Minimum inhibition concentration (MIC)

[
  {
    "compound": "CO[C@H]1[C@@H](O)[C@H](N)[C@@H](O[C@H]2O[C@H]([C@H](C)N)CC[C@H]2N)[C@H](O)[C@@H]1N(C)C(=O)CO",
    "target-entity": "Pseudomonas aeruginosa R5 KY8512",
    "qualifier-sign": "=",
    "MIC [µg/mL]": 50
  },
  {
    "compound": "CO[C@H]1[C@@H](O)[C@H](N)[C@@H](O[C@H]2O[C@H]([C@H](C)N)CC[C@H]2N)[C@H](O)[C@@H]1N(C)CC(O)CCN (stereo partly drawn)",
    "target-entity": "Pseudomonas aeruginosa R5 KY8512",
    "qualifier-sign": "=",
    "MIC [µg/mL]": 12.5
  },
  {
    "compound": "CNCC[C@H](O)CN(C)[C@H]1[C@@H](O)[C@H](O[C@H]2O[C@H]([C@H](C)N)CC[C@H]2N)[C@@H](N)[C@H](O)[C@@H]1OC",
    "target-entity": "Pseudomonas aeruginosa R5 KY8512",
    "qualifier-sign": "=",
    "MIC [µg/mL]": 12.5
  },
  {
    "compound": "CO[C@H]1[C@@H](O)[C@H](N)[C@@H](O[C@H]2O[C@H]([C@H](C)N)CC[C@H]2N)[C@H](O)[C@@H]1N(C)C(=O)CNC(N)=O [Compound 3, 4-N-hydantoylfortimicin B, reference compound]",
    "target-entity": "Pseudomonas aeruginosa R5 KY8512",
    "qualifier-sign": "=",
    "MIC [µg/mL]": 50
  },
  {
    "compound": "CO[C@H]1[C@@H](O)[C@H](N)[C@@H](O[C@H]2O[C@H]([C@H](C)N)CC[C@H]2N)[C@H](O)[C@@H]1N(C)CCN",
    "target-entity": "Pseudomonas aeruginosa R5 KY8512",
    "qualifier-sign": "=",
    "MIC [µg/mL]": 12.5
  },
  {
    "compound": "CN[C@H]1[C@@H](O)[C@H](O[C@H]2O[C@H]([C@H](C)N)CC[C@H]2N)[C@@H](N)[C@H](O)[C@@H]1OC",
    "target-entity": "Pseudomonas aeruginosa R5 KY8512",
    "qualifier-sign": ">",
    "MIC [µg/mL]": 100
  }
]

* * *

- Test system: Shigella sonnei KY4281 ATCC9290
- protocol-text: MIC, agar dilution method, pH 8.0
- Assay type: cell-based
- measurement-setup: ATCC9290; pH 8.0; Shigella sonnei KY4281; read-out: Minimum inhibition concentration (MIC), SS
outcome-measure: MIC

[
  {
    "chemical-smiles": "CO[C@H]1[C@@H](O)[C@H](N)[C@@H](O[C@H]2O[C@H]([C@H](C)N)CC[C@H]2N)[C@H](O)[C@@H]1N(C)C(=O)CCN",
    "outcome-measure": "MIC",
    "reported-result": "1.25 µg/mL"
  },
  {
    "chemical-smiles": "CO[C@H]1[C@@H](O)[C@H](N)[C@@H](O[C@H]2O[C@H]([C@H](C)N)CC[C@H]2N)[C@H](O)[C@@H]1N(C)CCCCCCN",
    "outcome-measure": "MIC",
    "reported-result": "> 80 µg/mL"
  },
  {
    "chemical-smiles": "CO[C@H]1[C@@H](O)[C@H](N)[C@@H](O[C@H]2O[C@H]([C@H](C)N)CC[C@H]2N)[C@H](O)[C@@H]1N(C)C(=O)CO",
    "outcome-measure": "MIC",
    "reported-result": "5 µg/mL"
  },
  {
    "chemical-smiles": "CCCCC(=O)N(C)[C@H]1[C@@H](O)[C@H](O[C@H]2O[C@H]([C@H](C)N)CC[C@H]2N)[C@@H](N)[C@H](O)[C@@H]1OC",
    "outcome-measure": "MIC",
    "reported-result": "> 200 µg/mL"
  },
  {
    "chemical-smiles": "CNCC[C@H](O)CN(C)[C@H]1[C@@H](O)[C@H](O[C@H]2O[C@H]([C@H](C)N)CC[C@H]2N)[C@@H](N)[C@H](O)[C@@H]1OC",
    "outcome-measure": "MIC",
    "reported-result": "0.63 µg/mL"
  }
]
